- TARGET OR TEST SYSTEM: alanine racemase (AR); light protiated form HAR (Geobacillus stearothermophilus, UniProt P10724)
- Sequence (P10724 whole entry): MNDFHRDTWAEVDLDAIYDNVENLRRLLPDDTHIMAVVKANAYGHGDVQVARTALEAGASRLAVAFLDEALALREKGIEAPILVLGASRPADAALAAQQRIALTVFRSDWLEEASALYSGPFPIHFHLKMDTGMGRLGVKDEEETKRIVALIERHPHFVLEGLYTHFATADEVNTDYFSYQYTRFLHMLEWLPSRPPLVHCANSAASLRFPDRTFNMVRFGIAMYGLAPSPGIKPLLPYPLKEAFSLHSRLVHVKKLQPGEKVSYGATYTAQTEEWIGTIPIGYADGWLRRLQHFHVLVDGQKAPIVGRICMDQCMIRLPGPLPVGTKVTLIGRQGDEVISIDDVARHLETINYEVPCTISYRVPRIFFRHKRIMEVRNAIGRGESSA
- EXPERIMENT: steady-state racemization kinetics, competitive inhibition
RECORDED METRIC: pKi
# log scale: pKi equals minus log10 of the concentration in mol/L

Which pKi value is on record for CC(C)(N)C(=O)O [2-methylalanine] ?
1.62
